assay: modulators of glucocorticoid suppression of NF-kB, cell-based, luciferase, IL-1B stimulus, dexamethasone (AID 624486); conditions: NF-kB luciferase reporter, IL-1B + dexamethasone, luminescence; measured here: IL-1B alone, no Dex

Compound: CN(C)c1ccc2[nH]c(O)c(C=Nc3ccc(S(N)(=O)=O)cc3)c2c1
z-score: 0.245

Compound: CN(C)CCCNc1nccc(-c2c(-c3ccc(F)cc3)nn3cc(C(F)(F)F)ccc23)n1
z-score: 0.05

Compound: Fc1ccc(Nc2nccc(-c3c(-c4ccc(C(F)(F)F)cc4)nn4ncccc34)n2)cc1F
z-score: 0.25

Compound: Cn1cc(C2=C(c3cccc(NCC(O)CO)c3)C(=O)NC2=O)c2cc(Cl)ccc21 (stereo not given)
z-score: -1.56

Compound: CNC(=O)c1cncc(/C=C/c2c(Cl)cccc2Cl)c1
z-score: 0.3

Compound: Cn1c(=O)c(Oc2ccccc2)cc2cnc(NC3CCOCC3)nc21
z-score: 1.03

Compound: CCCn1cc(C2=C(c3cn(C)c4ccccc34)C(=O)NC2=O)c2ccccc21
z-score: 0.09

Compound: OCCCNc1nccc(-c2c(-c3ccc(F)cc3)nn3cc(C(F)(F)F)ccc23)n1
z-score: 1.02

Compound: CCOc1nccc2c1nc(-c1nonc1N)n2CC
z-score: -0.885

Compound: NS(=O)(=O)c1cccc(N=Cc2c(O)[nH]c3ccccc23)c1
z-score: 0.485

// provenance: PubChem BioAssay
